# System: HEK-293T
# Test details: Multiplex assay against HEK293T
# Format: toxicity, cell-based
# Test settings: human, 24 h, 1 µM, compound concentration 1 uM, replicate 2
Measured quantity: Population Mitochondria Different-Phenotype (%)
# number then unit; no other words

[in] State its Population Mitochondria Different-Phenotype (%) on HEK-293T: C=CC(=O)Nc1cc2c(Nc3ccc(F)c(Cl)c3)ncnc2cc1OCCCN1CCOCC1.Cl.Cl [CANERTINIB DIHYDROCHLORIDE]
[out] 67%

[in] State its Population Mitochondria Different-Phenotype (%) on HEK-293T: COc1cc(-n2cnc3cc(-c4ccc(Cl)cc4)sc3c2=O)ccc1OCCN1CCCC1
[out] 52%

[in] State its Population Mitochondria Different-Phenotype (%) on HEK-293T: Cc1nc(-c2cn3c(n2)-c2ccc(-c4cnn(C(C)(C)C(N)=O)c4)cc2OCC3)n(C(C)C)n1 [TASELISIB]
[out] 20%

[in] State its Population Mitochondria Different-Phenotype (%) on HEK-293T: CN(C)C(=O)N[C@H]1CC[C@H](CCN2CCN(c3cccc(Cl)c3Cl)CC2)CC1.Cl [CARIPRAZINE HYDROCHLORIDE]
[out] 34%

[in] State its Population Mitochondria Different-Phenotype (%) on HEK-293T: Cc1cc(C)cc(-c2cnc3cc(Cl)c(-c4cccc(O)c4)cc3c2OCCCN)c1
[out] 81%

[in] State its Population Mitochondria Different-Phenotype (%) on HEK-293T: Cl.N#Cc1ccc2[nH]cc(CCCCN3CCN(c4ccc5oc(C(N)=O)cc5c4)CC3)c2c1 [VILAZODONE HYDROCHLORIDE]
[out] 60%
